Experiment: Inhibition of AmpC beta-lactamase
# reported Ki; entries follow
Number in nM, nothing else.

Worked examples, 2 compounds total:
O=C(Cc1cccs1)N[C@@H](Cc1cccc(C(=O)O)c1)B(O)O : 39
CCOc1ccc2ccccc2c1S(=O)(=O)NCB(O)O : 670

Please look at the following compound next.
For record `COC(=O)c1ccc(CS(=O)(=O)NCB2OC(C)(C)C(C)(C)O2)cc1` the listed Ki is 120

###

Test: Inhibition of AmpC beta-lactamase
TEST_READOUT: pKi
On this scale, pKi is minus log10 of a concentration expressed in M (mol/L).

Reference set, count: 6
O=S(=O)(Cc1ccccc1)N[C@@H](Cc1ccccc1)B(O)O : 5.43
O=C(Cc1ccccc1)NCB(O)O : 6.24
O=C(Cc1cccs1)N[C@H](B(O)O)c1cccc(C(=O)O)c1 : 9.00
Cc1ccc(S(=O)(=O)NCB(O)O)cc1 : 6.68
CS(=O)(=O)NCB(O)O : 6.10
O=[N+]([O-])c1cccc(CS(=O)(=O)NCB(O)O)c1 : 6.72

Pending compound:
response.value for `Nc1cccc(CS(=O)(=O)NCB(O)O)c1` (field: pKi) = 6.97

Origin of measurements: ChEMBL document CHEMBL1275363
